- EXPERIMENT_SUMMARY: self-splicing fitness, log relative to wild type (ln ratio); higher = more splicing; Tetrahymena group I intron in knt gene, E. coli kanamycin selection, DiMSum; sequences stand for … in CUCUCU…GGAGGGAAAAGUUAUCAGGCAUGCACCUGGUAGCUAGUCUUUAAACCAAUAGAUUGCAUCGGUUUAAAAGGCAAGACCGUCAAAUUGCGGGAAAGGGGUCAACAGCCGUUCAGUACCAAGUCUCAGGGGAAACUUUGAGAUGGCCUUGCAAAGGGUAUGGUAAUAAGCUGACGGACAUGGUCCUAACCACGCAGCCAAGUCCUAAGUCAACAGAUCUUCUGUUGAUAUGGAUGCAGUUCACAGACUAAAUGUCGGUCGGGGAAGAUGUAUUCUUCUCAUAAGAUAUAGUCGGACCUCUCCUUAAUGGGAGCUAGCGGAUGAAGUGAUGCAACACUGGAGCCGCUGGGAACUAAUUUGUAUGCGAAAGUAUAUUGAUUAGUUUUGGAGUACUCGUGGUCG;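 also: selection with 25 µg/mL kanamycin versus none on LB agar overnight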
- REPORTED_CONDITIONS: 30 °C
Assignment: determine reported self-splicing fitness (ln) for the given sequences.
Answers are plain numbers.

Worked cases, answers included:
          sequence_code  recorded_measurement
0  CGCCAGCAAUAUUACGCUGC                 -4.16
1  CGCCAGCAAUAUUACGAGAU                 -3.69

Items follow; give self-splicing fitness (ln) for each.
1. UCCGAGCAAUAUUACGCAGA
2. AGGAAGCAAUAUUACGGCGA
3. GACAAGCAAUAUUACGACCA
4. UUGGAGCAAUAUUACGCUGA
5. ACAUAGCAAUAUUACGAUUA
6. GCACAGCAAUAUUACGUCAA
7. GUACAGCAAUAUUACGCUAU

[-3.65, -0.209, -0.459, -1.98, -0.756, -0.993, -3.82]

Items follow; give self-splicing fitness (ln) for each.
1. CGGAAGCAAUAUUACGCGUG
2. UGUAAGCAAUAUUACGCCAU
3. GCGAAGCAAUAUUACGACUA
4. AUUUAGCAAUAUUACGCAAG
5. GACGAGCAAUAUUACGGUUU
6. CCUCAGCAAUAUUACGCGCA
7. GCCCAGCAAUAUUACGCGGA

-1.54
-3.9
0.115
-2.59
-2.28
-3.31
-0.775

Items follow; give self-splicing fitness (ln) for each.
1. AGCCAGCAAUAUUACGGCGG
2. GUCCAGCAAUAUUACGGUAA
3. CGGUAGCAAUAUUACGUUAU
4. GGAAAGCAAUAUUACGUGUA
5. UGGUAGCAAUAUUACGCUUG
6. UGAAAGCAAUAUUACGCCAG

-2
-0.283
-2.66
-1.92
-0.988
-0.985

====

- EXPERIMENT_SUMMARY: self-splicing fitness, log relative to wild type (ln ratio); higher = more splicing; Tetrahymena group I intron in knt gene, E. coli kanamycin selection, DiMSum; sequences stand for … in CUCUCU…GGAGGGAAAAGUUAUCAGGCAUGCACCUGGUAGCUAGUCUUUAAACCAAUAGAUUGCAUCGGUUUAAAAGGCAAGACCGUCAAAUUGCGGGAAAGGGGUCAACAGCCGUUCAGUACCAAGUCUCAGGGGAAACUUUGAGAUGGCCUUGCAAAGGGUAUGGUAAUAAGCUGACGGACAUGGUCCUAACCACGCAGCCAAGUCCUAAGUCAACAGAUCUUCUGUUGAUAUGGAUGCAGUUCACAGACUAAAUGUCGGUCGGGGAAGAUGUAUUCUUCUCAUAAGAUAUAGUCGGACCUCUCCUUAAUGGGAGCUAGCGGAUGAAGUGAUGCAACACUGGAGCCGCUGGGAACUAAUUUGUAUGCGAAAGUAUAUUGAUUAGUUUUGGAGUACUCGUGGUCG
- REPORTED_CONDITIONS: 37 °C
MEASUREMENT_NAME: self-splicing fitness (ln)
Answers are plain numbers.

Worked cases, answers included:
>>> print(df.to_string())
          sequence_code  recorded_measurement
0  UGAGAGCAAUAUUACGCCAC                  -1.1
1  AGGGAGCAAUAUUACGUGGU                 -3.13
2  ACAGAGCAAUAUUACGAAAU                 -1.01
3  CCGAAGCAAUAUUACGGUGU                 -2.09
4  ACAGAGCAAUAUUACGCGGU                 -2.43
5  AAAAAGCAAUAUUACGGCUA                 0.116
6  ACGGAGCAAUAUUACGCGGA                 -1.54
7  CAUGAGCAAUAUUACGCAGG                 -1.51
8  CCGGAGCAAUAUUACGACAG                -0.569
9  UAUCAGCAAUAUUACGAAGC                 -2.09

Items follow; give self-splicing fitness (ln) for each.
1. GCGCAGCAAUAUUACGGGGU
2. UCAGAGCAAUAUUACGGUAU
3. GCCCAGCAAUAUUACGAGAC
4. GAUUAGCAAUAUUACGAUUC

[-2.31, -3.2, -0.787, -1.45]

Items follow; give self-splicing fitness (ln) for each.
1. CGUGAGCAAUAUUACGUCCC
2. AAGUAGCAAUAUUACGCCUA
3. UAAUAGCAAUAUUACGCCCA
4. AACGAGCAAUAUUACGUCAU
5. AUCCAGCAAUAUUACGAAUC
6. CCCGAGCAAUAUUACGGCUU
7. GAGUAGCAAUAUUACGGGCU
8. UUGGAGCAAUAUUACGACGC

1. -1.09
2. -0.477
3. 0.129
4. -2.44
5. -1.87
6. -2.71
7. -1.94
8. -2.47

Items follow; give self-splicing fitness (ln) for each.
1. CCGCAGCAAUAUUACGAAAG
2. AGUCAGCAAUAUUACGGGGA
3. GCCCAGCAAUAUUACGAAGG
4. AAAAAGCAAUAUUACGUCCG
5. UCCUAGCAAUAUUACGCCGA

1. 0.125
2. -1.42
3. -2.42
4. -0.195
5. 0.0045

====

- EXPERIMENT_SUMMARY: self-splicing fitness, log relative to wild type (ln ratio); higher = more splicing; Tetrahymena group I intron in knt gene, E. coli kanamycin selection, DiMSum; sequences stand for … in CUCUCU…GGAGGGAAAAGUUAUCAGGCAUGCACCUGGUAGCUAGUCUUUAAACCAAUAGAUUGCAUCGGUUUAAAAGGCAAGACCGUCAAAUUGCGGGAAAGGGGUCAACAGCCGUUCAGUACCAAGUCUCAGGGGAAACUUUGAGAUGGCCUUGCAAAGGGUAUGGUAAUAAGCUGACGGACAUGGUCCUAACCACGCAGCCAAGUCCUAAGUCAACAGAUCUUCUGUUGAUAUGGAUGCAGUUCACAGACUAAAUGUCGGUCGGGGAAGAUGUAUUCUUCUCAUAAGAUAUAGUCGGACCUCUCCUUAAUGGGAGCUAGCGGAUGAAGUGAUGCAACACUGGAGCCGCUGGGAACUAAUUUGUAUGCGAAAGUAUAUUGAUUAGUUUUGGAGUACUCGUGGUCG
- REPORTED_CONDITIONS: 37 °C
Assignment: determine reported self-splicing fitness (ln) for the given sequences.
Numbers only.

Worked cases, answers included:
>>> print(df.to_string())
          sequence_code            measurement_name  recorded_measurement
0  AGAGAGCAAUAUUACGUGGU  self-splicing fitness (ln)                  -3.6
1  CCAUAGCAAUAUUACGGGUG  self-splicing fitness (ln)                 -1.48
2  CGCAAGCAAUAUUACGCGAC  self-splicing fitness (ln)                 -1.68
3  ACUAAGCAAUAUUACGGGGG  self-splicing fitness (ln)                 -1.26
4  AAAUAGCAAUAUUACGGGGA  self-splicing fitness (ln)                 -2.86

Items follow; give self-splicing fitness (ln) for each.
1. CAACAGCAAUAUUACGGUUU
2. GGAAAGCAAUAUUACGCGGU

1. 0.183
2. -3.21

Items follow; give self-splicing fitness (ln) for each.
1. CUCAAGCAAUAUUACGUUUC
2. UGCGAGCAAUAUUACGUAGU

[-3.83, -1.9]

Items follow; give self-splicing fitness (ln) for each.
1. CGGAAGCAAUAUUACGGCAG
2. AAGCAGCAAUAUUACGUCGG
3. CGCCAGCAAUAUUACGGAGA
4. GCUCAGCAAUAUUACGAGCU
5. CAAGAGCAAUAUUACGCACA

1. 0.445
2. -1.7
3. -2.4
4. -2.27
5. -1.53

Items follow; give self-splicing fitness (ln) for each.
1. ACCUAGCAAUAUUACGUGCU
2. AAGAAGCAAUAUUACGCAAC

[-1.31, -2.1]

Items follow; give self-splicing fitness (ln) for each.
1. UACAAGCAAUAUUACGGCGU
2. CCUAAGCAAUAUUACGAAGC
3. CGCUAGCAAUAUUACGUGGC
4. GCAUAGCAAUAUUACGUUGC
5. UCCCAGCAAUAUUACGGUAG
6. CGAAAGCAAUAUUACGACCU

[-0.846, -1.92, -2.72, -1.72, -1.45, -0.386]

Items follow; give self-splicing fitness (ln) for each.
1. GACAAGCAAUAUUACGGCAA
2. AAUAAGCAAUAUUACGAUUA
3. ACAAAGCAAUAUUACGCGGG
4. CCACAGCAAUAUUACGCCGU

1. -0.384
2. 0.438
3. -1.01
4. -1.87

Items follow; give self-splicing fitness (ln) for each.
1. CACCAGCAAUAUUACGAACA
2. CACCAGCAAUAUUACGGCCU
3. GACGAGCAAUAUUACGACGA
4. GGCAAGCAAUAUUACGGAGC

1. -0.953
2. -1.93
3. -1.07
4. 0.0393

Items follow; give self-splicing fitness (ln) for each.
1. CUUCAGCAAUAUUACGUCGU
2. GAACAGCAAUAUUACGGCCC
3. AACAAGCAAUAUUACGAUGU
4. AGACAGCAAUAUUACGAUUC
5. GGGCAGCAAUAUUACGCAAA
6. AUAGAGCAAUAUUACGAACG
7. GAGUAGCAAUAUUACGUUAU

-2.88
-0.265
-0.411
-0.569
-0.884
-0.83
-2.12
